- system.tested: VIM-2 metallo-β-lactamase (Class B) (Pseudomonas aeruginosa)
- assay.text: β-Lactamase inhibition, VIM-2
- condition: nitrocefin 100 μM, 486 nm; 15 min preincubation at 37° C., PBS pH 7.4
- Protocol: For Vim-2 metallo β-lactamase, the procedure was identical with the following exceptions, first the protein was not pH adjusted to pH 5 with 50 mM sodium acetate, second, the chromatography step was changed to a 5 ml Q sepharose anion exchange column pre-equilibrated with 50 mM Hepes pH 7.5, and elution of the protein was achieved by a linear gradient of NaCl (0-600 mM). […]
pIC50: −log10 of the molar value.
quantity.measured: pIC50

// recorded pIC50 for `O=C(CC1CCNCC1)N[C@H]1Cc2cccc(C(=O)O)c2OB1O` : 4.00 to 5.00

Next:
// recorded pIC50 for `N#CCN1CCC(CC(=O)N[C@H]2Cc3cccc(C(=O)O)c3OB2O)CC1` : 4.00 to 5.00

// recorded pIC50 for `N=C(N)NCCN1CCN(CC(=O)N[C@H]2Cc3cccc(C(=O)O)c3OB2O)C(=O)C1` : 5.00 to 6.00

// recorded pIC50 for COC1CN(CC(=O)N[C@H]2Cc3cccc(C(=O)O)c3OB2O)CCC1N (stereo partly shown) : 5.00 to 6.00

These data points were gathered from patent US10294248B2.
